Kindly state self-cleavage for each of the entries shown.
B1: HDV Ribozyme (parent)
chain: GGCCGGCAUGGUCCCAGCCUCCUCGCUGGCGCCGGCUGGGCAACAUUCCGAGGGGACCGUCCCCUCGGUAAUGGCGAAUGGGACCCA

variants of: B1; experiment: self-cleavage, relative activity (ratio to wild type); higher = more cleavage; co-transcriptional
Give bare numbers.

Problem: May I ask what self-cleavage has been recorded for GGCCGGCAUGGUCCCAGCCUCCUCGCUGGCGCCGGCUGGGCAACAUUCCGAGGGGACCGUCCACUCGGUAAUGGCGAAUGGGACCCU [C63A A87U] ?
Result: 1.03

Problem: Could you tell me which self-cleavage is on file for GGCCGGCAUGUUCCCAGCCUCCUCGCUGGCGCCGGCUGGGCAACAUUCCGAGGGGACCGUCCCCUCGGUAAUGGCGAAUGGGACCCU [G11U A87U] ?
Result: 0.199

# context switch: different variant, same self-cleavage
Problem: I'd like to know its self-cleavage. The variant in question is GGCCGGCAUGGUCCCAGCCUCCUCGCAGGCGCCGGCUGGGCAACAUUCCGAGGGGACCGUCCCCUCGGUAAUCGCGAAUGGGACCCA [U27A G73C]
Result: 0.0639
